TARGET_OR_SYSTEM: human ether-à-go-go-related gene (hERG) potassium channel (human)
EXPERIMENT: primary screen, population patch clamp on CHO cells stably expressing hERG; higher = less effect of the substance
About 14,000 (4.5%) of roughly 310,000 compounds showed an effect of 50% or more. The effect is printed as a negative number. The sample as a whole holds a higher share of strong results than the screen did.
So I've got a bunch of compounds here, and I need their hERG current change (%, negative = inhibition) at 10uM values.
Field note: include the unit after the figure.

Use the examples below as a reference point.
- RECORD_SMILES: "COC(=O)[C@@]1(Cc2ccc(F)cc2)[C@H]2c3cc(C(=O)N(C)C)n(Cc4ccccn4)c3C[C@H]2CN1C(=O)c1ccccc1"
  TARGET_OR_SYSTEM: "human ether-à-go-go-related gene (hERG) potassium channel (human)"
  ASSAY_RESULT: "-53.4%"
- RECORD_SMILES: "COC(=O)[C@@]1(Cc2ccc(F)cc2)[C@H]2c3cc(C(=O)N(C)C)n(CCc4ccccn4)c3C[C@H]2CN1C(=O)c1ccccc1"
  TARGET_OR_SYSTEM: "human ether-à-go-go-related gene (hERG) potassium channel (human)"
  ASSAY_RESULT: "-64.8%"

Let us examine a further case.
**Q:** Give the measured hERG current change (%, negative = inhibition) at 10uM of COC(=O)[C@@]1(Cc2ccc(F)cc2)[C@H]2c3cc(C(=O)N(C)C)n(CCSCCO)c3C[C@H]2CN1C(=O)c1ccccc1 .
**A:** -34.4%

----------
TARGET_OR_SYSTEM: human ether-à-go-go-related gene (hERG) potassium channel (human, UniProt Q12809);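 also: peak tail current of the secondary pulse compared with the same well before compound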
Sequence (Q12809 whole entry, looked up): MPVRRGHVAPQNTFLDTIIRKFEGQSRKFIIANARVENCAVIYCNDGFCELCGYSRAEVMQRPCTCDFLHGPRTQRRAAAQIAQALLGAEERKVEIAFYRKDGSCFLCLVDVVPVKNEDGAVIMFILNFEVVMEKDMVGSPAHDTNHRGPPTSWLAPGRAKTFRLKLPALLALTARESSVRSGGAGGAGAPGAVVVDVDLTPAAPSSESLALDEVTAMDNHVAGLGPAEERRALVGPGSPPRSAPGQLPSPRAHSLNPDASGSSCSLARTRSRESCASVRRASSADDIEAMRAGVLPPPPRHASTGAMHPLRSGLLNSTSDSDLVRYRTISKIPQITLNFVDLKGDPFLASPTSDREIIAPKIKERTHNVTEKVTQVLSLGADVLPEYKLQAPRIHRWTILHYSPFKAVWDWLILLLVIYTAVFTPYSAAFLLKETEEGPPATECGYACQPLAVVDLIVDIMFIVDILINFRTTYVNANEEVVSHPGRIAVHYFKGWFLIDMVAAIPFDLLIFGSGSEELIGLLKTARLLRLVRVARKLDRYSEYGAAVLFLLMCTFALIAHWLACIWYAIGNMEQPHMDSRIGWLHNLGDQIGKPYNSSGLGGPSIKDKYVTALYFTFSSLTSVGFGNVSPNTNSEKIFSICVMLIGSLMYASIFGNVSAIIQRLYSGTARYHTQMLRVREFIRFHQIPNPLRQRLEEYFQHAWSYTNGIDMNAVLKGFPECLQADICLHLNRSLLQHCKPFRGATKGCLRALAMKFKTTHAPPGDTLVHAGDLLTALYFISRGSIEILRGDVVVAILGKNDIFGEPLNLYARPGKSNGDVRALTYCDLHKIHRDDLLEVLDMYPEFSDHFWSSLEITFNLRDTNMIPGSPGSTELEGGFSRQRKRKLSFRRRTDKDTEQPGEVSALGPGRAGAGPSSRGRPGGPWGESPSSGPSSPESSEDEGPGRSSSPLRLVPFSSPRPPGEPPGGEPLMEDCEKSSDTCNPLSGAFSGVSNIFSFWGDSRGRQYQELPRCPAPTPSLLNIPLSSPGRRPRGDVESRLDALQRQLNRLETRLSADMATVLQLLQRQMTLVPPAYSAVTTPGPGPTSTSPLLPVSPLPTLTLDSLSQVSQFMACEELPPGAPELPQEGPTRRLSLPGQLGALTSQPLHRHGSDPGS
EXPERIMENT: primary screen, population patch clamp on CHO cells stably expressing hERG; higher = less effect of the substance
Screen size: about 310,000 compounds; about 14,000 (4.5%) showed an effect of 50% or more. The effect is printed as a negative number. For the sample, strong results were picked, then their nearest neighbours and some compounds at random.
Label condition met for high-side hERG current change (%, negative = inhibition) at 10uM (at or above -30%) and condition not met for low-side hERG current change (%, negative = inhibition) at 10uM (below it).

Solved entries:
- COMPOUND: "CCn1c(SCC(=O)Nc2ccccc2F)nnc1-c1cnccn1"
  CLASS_NAME: "condition not met"
- COMPOUND: "CCn1c(SCC(=O)Nc2ccc(C)cc2)nnc1-c1ccccn1"
  CLASS_NAME: "condition not met"
- COMPOUND: "Cc1ccc(S(=O)(=O)/N=c2\\scc(C)n2C)cc1"
  CLASS_NAME: "condition met"

**Q:** API: above_or_equal(metric=hERG current change (%, negative = inhibition) at 10uM, cutoff=-30%) for item O=C(COc1cccnc1[N+](=O)[O-])Nc1ccc2c(c1)OCO2
**A:** condition met

**Q:** Threshold query (hERG current change (%, negative = inhibition) at 10uM >= -30%) on Cc1oc(-c2ccc(Cl)cc2)nc1CS(=O)CC(=O)NCc1ccccn1 (stereo not shown)
**A:** condition met

**Q:** Identify whether the reported hERG current change (%, negative = inhibition) at 10uM of the following compound is -30% or greater: Cc1ccc(NC(=O)CSc2nnc(-c3ccccn3)n2C)cc1
**A:** condition met

**Q:** Say whether CCn1c(SCC(=O)Nc2ccc(F)cc2)nnc1-c1cnccn1 shows hERG current change (%, negative = inhibition) at 10uM of -30% or more.
**A:** condition not met

**Q:** Reported hERG current change (%, negative = inhibition) at 10uM at or above -30%? CCn1c(SCC(=O)Nc2ccc(C)cc2)nnc1-c1cnccn1
**A:** condition not met

**Q:** Item Cc1oc(-c2cccc(Cl)c2)nc1CN1CCC(C(=O)NCc2cccnc2)CC1 with hERG current change (%, negative = inhibition) at 10uM of -30% or above?
**A:** condition not met

**Q:** Item COc1cccc(OCC(=O)Nc2c3c(nn2-c2ccccc2)CS(=O)(=O)C3)c1 with hERG current change (%, negative = inhibition) at 10uM of -30% or above?
**A:** condition not met

----------
Give measured hERG current change (%, negative = inhibition) at 10uM for each item. Keep answers brief.
TARGET_OR_SYSTEM: human ether-à-go-go-related gene (hERG) potassium channel (human, UniProt Q12809);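 also: peak tail current of the secondary pulse compared with the same well before compound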
EXPERIMENT: primary screen, population patch clamp on CHO cells stably expressing hERG; higher = less effect of the substance
Method: Briefly, Chinese hamster ovary (CHO) cells stably expressing the hERG channel were dislodged from tissue culture flasks and dispensed into PPC plates. […] During the recording, background leak currents were estimated by a 100 ms step to -80 mV from an initial holding potential of -70 mV and subtracted from the subsequent current measurement. The campaign was conducted in two phases using slight differences in recording protocol. […]
Out of some 310,000 compounds screened, about 14,000 (4.5%) showed an effect of 50% or more. The effect is printed as a negative number. For the sample, strong results were picked, then their nearest neighbours and some compounds at random.
One number for each entry, in %.

- MOLECULE: "COC(=O)C1=C(c2ccc(C(C)=O)cc2)C[C@@H]2CC[C@H]1N2C(=O)NCc1ccc(C(F)(F)F)cc1"
  ASSAY_RESULT: 30
- MOLECULE: "CCOC(=O)c1cc(-c2cc(OC)c(OC)c(OC)c2)nc2c1c(=O)[nH]c(=O)n2Cc1ccccc1"
  ASSAY_RESULT: 1.34
- MOLECULE: "O=C1c2ccccc2S(=O)(=O)c2cc(C(=O)N3CCN(c4ccc(Cl)cn4)CC3)ccc21"
  ASSAY_RESULT: -33.1

For every item in the list below, what is its measured hERG current change (%, negative = inhibition) at 10uM?
1. CCOc1cc(-c2sc(Nc3ccccc3)n[n+]2-c2ccc(F)cc2)ccc1OC.[Cl-]
2. CC(Sc1nnc(N)s1)C(=O)NCc1ccc2c(c1)OCO2 (stereo not drawn)

**A:**
1: 23.6; 2: 0.709

// input: 4 molecules below; output: hERG current change (%, negative = inhibition) at 10uM for each
1. NS(=O)(=O)c1ccc(CCNC(=O)C2CCCN(S(=O)(=O)c3cccnc3)C2)cc1 (stereo not drawn)
2. COc1ccc(C)cc1Nc1n[n+](-c2ccccc2)c(-c2ccc(N(C)C)cc2)s1.[Cl-]
3. CC1OC(OCC2OC(Oc3c(-c4ccc(O)cc4)oc4cc(O)cc(O)c4c3=O)C(O)C(O)C2O)C(O)C(O)C1O (stereo not drawn)
4. CCCCNC(=O)c1nn(-c2ccccc2OC)c(=O)c2ccccc12

**A:**
1. -4.22
2. -49.3
3. 13.7
4. -4.46

Hi there! I need hERG current change (%, negative = inhibition) at 10uM for each item below, if you can.
1. COc1ccc(S(=O)(=O)N[C@@H](Cc2ccccc2)C(=O)N2CC[C@@]3(O)CCCC[C@H]3C2)cc1
2. N#Cc1nc(COc2cccc(Cl)c2)oc1N1CCN(c2ccccc2)CC1
3. COC(=O)C1=C(c2ccc(S(C)(=O)=O)cc2)C[C@@H]2CC[C@H]1N2C(=O)NCc1cccc2ccccc12
4. CC1=NN(C(=O)c2ccc(Cn3cc(Br)c([N+](=O)[O-])n3)o2)C(O)(C(F)(F)F)C1 (stereo not drawn)
5. CCOc1cc(-c2sc(Nc3ccc(CC)cc3)n[n+]2-c2ccccc2)ccc1OC.[Cl-]
6. COc1ccc(C)cc1Nc1n[n+](-c2ccccc2)c(-c2ccc(SC)cc2)s1.[Cl-]
7. O=C(/C=C/c1ccccc1)NCCN1CCOCC1
8. O=C(Nc1cccc(C(F)(F)F)c1)c1c(O)c2ccccc2[nH]c1=O

**A:**
1: -14.9; 2: -4.18; 3: -61.6; 4: -16.6; 5: -78.7; 6: -1.4; 7: 20.6; 8: 16

**Q:** Form: Entry = O=C(Nc1ncn[nH]1)c1ccc(S(=O)(=O)N2CCOCC2)cc1 | System = human ether-à-go-go-related gene (hERG) potassium channel (human, UniProt Q12809) | hERG current change (%, negative = inhibition) at 10uM = ____;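 also: peak tail current of the secondary pulse compared with the same well before compound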
**A:** -5.88

----------
TARGET_OR_SYSTEM: human ether-à-go-go-related gene (hERG) potassium channel (human, UniProt Q12809);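 also: peak tail current of the secondary pulse compared with the same well before compound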
EXPERIMENT: primary screen, population patch clamp on CHO cells stably expressing hERG; higher = less effect of the substance
Screen size: about 310,000 compounds; about 14,000 (4.5%) showed an effect of 50% or more. The effect is printed as a negative number. The sample holds strong results, similar compounds and a random draw of the others, so the mix is not that of the screen.
Consider the following molecules; for each one, report its hERG current change (%, negative = inhibition) at 10uM.
Give bare numbers, in %.

- MOLECULE: "Cc1cc(Cl)c(OCCOCCN2CCCC(C)C2)c(Br)c1.O=C(O)C(=O)O (centres unmarked)"
  MEASUREMENT_UNIT: "%"
  ASSAY_RESULT: -61.8
- MOLECULE: "COc1cccc(NC(=O)CSc2nc(C3CC3)nc3ccccc23)c1"
  MEASUREMENT_UNIT: "%"
  ASSAY_RESULT: 4.75
- MOLECULE: "O=C1OC(c2ccc(Br)cc2)=N/C1=C\\N1CC2CC(C1)c1cccc(=O)n1C2 (centres unmarked)"
  MEASUREMENT_UNIT: "%"
  ASSAY_RESULT: -45.2
- MOLECULE: "CC1CCN(C(=O)CSc2ccc(-c3ccccc3)nn2)CC1"
  MEASUREMENT_UNIT: "%"
  ASSAY_RESULT: -11.8
- MOLECULE: "O=c1cccc2n1C[C@@H]1C[C@@H]2CN(CC(O)c2ccc([N+](=O)[O-])cc2)C1 (some centres unmarked)"
  MEASUREMENT_UNIT: "%"
  ASSAY_RESULT: -49
- MOLECULE: "COc1ccc(Cl)cc1Nc1nc(NCCO)nc(N2CCCCC2)n1"
  MEASUREMENT_UNIT: "%"
  ASSAY_RESULT: -3.45
- MOLECULE: "Cc1ccc(SCC(=O)NCCc2ccc(F)cc2)cc1"
  MEASUREMENT_UNIT: "%"
  ASSAY_RESULT: -0.26
- MOLECULE: "O=C1OC(c2ccc([N+](=O)[O-])cc2)=N/C1=C/N1CC2CC(C1)c1cccc(=O)n1C2 (centres unmarked)"
  MEASUREMENT_UNIT: "%"
  ASSAY_RESULT: -55.1
- MOLECULE: "O=C1OC(c2ccc(Cl)cc2)=N/C1=C\\N1CC2CC(C1)c1cccc(=O)n1C2 (centres unmarked)"
  MEASUREMENT_UNIT: "%"
  ASSAY_RESULT: -72
- MOLECULE: "CC(C)C1Nc2ccc(S(N)(=O)=O)cc2C2C=CCC21 (centres unmarked)"
  MEASUREMENT_UNIT: "%"
  ASSAY_RESULT: 5.89

Batch: hERG current change (%, negative = inhibition) at 10uM for all items listed.
1. O=C(CO/N=C/c1ccc(Cl)cc1Cl)NNC(=O)c1ccc(Cl)cc1Cl
2. CCc1ccc2[nH]cc(C(=O)OCCOC)c(=O)c2c1
3. COC(=O)CNC(=O)c1c(-c2ccccc2Cl)noc1C
4. O=C(NC(=S)N1C[C@H]2C[C@H](C1)c1cccc(=O)n1C2)c1ccc(Cl)cc1

**A:**
3.17
4.42
-5.68
-8.28

Hi! Can you tell me hERG current change (%, negative = inhibition) at 10uM for each of these molecules?
1. C/C(=N\NC(=O)CNC(=O)c1cccs1)c1ccc(Cl)c(Cl)c1
2. Cc1cc(C)c(OCCOCCN2CCN(C)CC2)c(Cl)c1.O=C(O)C(=O)O

**A:**
[-2.25, -5.21]

Batch request: hERG current change (%, negative = inhibition) at 10uM per item, same order as input.
1. COc1c(C)cccc1C(=O)Nc1cc(Cl)ccc1N1CCOCC1
2. Nc1cc(C(=O)N2CCN(c3ccc([N+](=O)[O-])cc3)CC2)ccc1N1CC2CC(C1)c1cccc(=O)n1C2 (centres unmarked)
3. COc1ccc(CC(=O)OCCN(C)C)cc1.Cl
4. Cc1ccc2nc3c(nc2c1C)C(O)=C3O

**A:**
[7.1, -35.3, 11.8, 6.68]
